Biological target: MCP-1 receptor (Homo sapiens, UniProt P41597)
Sequence (P41597 1-360 isoform P41597-2): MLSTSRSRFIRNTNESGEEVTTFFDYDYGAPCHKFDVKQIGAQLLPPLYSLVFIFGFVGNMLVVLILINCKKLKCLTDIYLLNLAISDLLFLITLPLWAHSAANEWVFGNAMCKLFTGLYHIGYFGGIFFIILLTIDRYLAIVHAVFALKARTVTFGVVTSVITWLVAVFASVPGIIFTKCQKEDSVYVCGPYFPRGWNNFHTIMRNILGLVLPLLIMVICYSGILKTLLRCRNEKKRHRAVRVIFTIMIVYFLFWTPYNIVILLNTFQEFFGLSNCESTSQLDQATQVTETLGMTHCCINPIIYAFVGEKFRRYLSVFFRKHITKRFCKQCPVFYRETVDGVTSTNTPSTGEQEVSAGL
pIC50: −log10 of the molar value.
Listed here are compounds together with their documented pIC50.
MEASURED_QUANTITY: pIC50

1. CN(CCN1CCCCC1)c1ccc(-c2nc3ccc(C(F)(F)F)cc3[nH]2)cc1: 4.81
2. CN(CCN1CCCCC1)c1ccc(-c2nc3ccc(Cl)cc3[nH]2)cc1 [drawing 11]: 5.23
3. CN(CCN1CCCCC1)c1ccc(-c2nc3cc(Cl)c(F)cc3[nH]2)cc1 [drawing 12]: 5.02
4. CCN(CC)CCN(C)c1ccc(-c2nc3cc(Cl)c(Cl)cc3[nH]2)cc1: 5.17
5. CN(CCN1CCCCC1)c1ccc(-c2nc3ccc(NCCCCCc4ccccc4)cc3[nH]2)cc1: 5.17
6. CN(CCN1CCCCC1)c1ccc(-c2nc3ccccc3[nH]2)cc1: 4.96
